Test system: 624824-186-R-J3-PDC multicell spheroids, viability;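 further: spheroids exposed to agents for seven days before luminescence read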
Experiment: Anticancer human tumor 624824-186-R-J3-PDC patient-derived colon adenocarcinoma cell line growth inhibition [PI3K]
Settings: curve of compound
pIC50: −log10 of the molar value.
// values below are reported pIC50
measured_attribute: pIC50

>  <compound>
CC(Cn1ccc(-c2ccc(C#N)c(Cl)c2)n1)NC(=O)c1cc(C(C)O)[nH]n1 (stereo not given)

>  <measured_value>
< 5.00

$$$$
>  <compound>
CC(=O)c1c(C)c2cnc(Nc3ccc(N4CCNCC4)cn3)nc2n(C2CCCC2)c1=O

>  <measured_value>
< 7.00

$$$$
>  <compound>
CC(C)n1nc(-c2ccc3oc(N)nc3c2)c2c(N)ncnc21

>  <measured_value>
< 7.00

$$$$
>  <compound>
Cn1nccc1Nc1nccc(-c2ccn(C(CO)c3ccc(Cl)c(F)c3)c(=O)c2)n1 (stereo not given)

>  <measured_value>
< 5.00

$$$$
>  <compound>
C=CC(=O)N1CCN(c2nc(=O)n(-c3c(C)ccnc3C(C)C)c3nc(-c4c(O)cccc4F)c(F)cc23)C(C)C1 (stereo not given)

>  <measured_value>
< 5.00

$$$$
